MEASURED TARGET: α1 -receptor
ASSAY DETAILS: Receptor binding study, displacement of tritium-labeled prazosin in brain membrane homogenates
CONDITION CONTEXT: mean of 4-6 experiments, read-out: α1 -receptor affinity IC50
REPORTED PROPERTY: pIC50
In simple prose, pIC50 is minus the logarithm base ten of a concentration in moles per litre.

May I ask what pIC50 has been recorded for COc1ccccc1N1CCN(CC(O)COc2cccc3ccccc23)CC1 (centres unmarked) ?
6.63

May I ask what pIC50 has been recorded for COc1ccccc1N1CCN(CC(O)COc2ccc(O)c3ccccc23)CC1 (centres unmarked) ?
7.28
